system: Plasmodium berghei; assay: Screen against P. berghei liver stage (PbLuc), transformed with Luciferase, at 2uM; assay type: functional, HepG2; details: tested at 2 uM
Screen size: about 68,000 compounds; about 2,700 (4%) showed an effect of 50% or more. This is one part of a sample in which strong results are shown more often than they occur.
EXPERIMENTAL_READOUT: INHIBITION

- CC(CC(=O)NCCCn1cccn1)c1cccnc1 (stereo unspecified): 74.51%
- CC(C)NC(=O)N1CCC2(CCC(=O)N2CCN(C)C)CC1: 16.12%
- CN1CCCCC1c1ncc2c(n1)CCN(Cc1ccc(Cl)c(F)c1)C2 (stereo unspecified): 56.99%
- Cc1csc(N(C)C(=O)C2CC(=O)N(c3ccccc3Cl)C2)n1 (stereo unspecified): -29.95%
- CC(NC(=O)Cn1cccn1)c1cccnc1 (stereo unspecified): 42.58%
- COc1ccc(CN2CCc3nc(C4CCCCN4C)ncc3C2)cc1 (stereo unspecified): -8.87%
- NC(=O)c1cccc2nc([C@H]3CCN(Cc4ccccn4)C3)[nH]c12: 50.72%
- Cc1nc(C)n(CC2CCCN2CC(=O)Nc2cc(C(C)C)no2)n1 (stereo unspecified): 35.42%
- Cc1cnc(C(=O)N2C[C@@H]3CC[C@H]2CN(Cc2cscn2)C3)[nH]1: -0.62%
- COc1ccc(CNC(=O)C(NC(=O)Cc2ccccc2)C(C)C)cn1 (stereo unspecified): -129.64%
- CC(NC(=O)NCCCn1cccn1)c1cccnc1 (stereo unspecified): -8.05%

meta.source: ChEMBL document CHEMBL4513216
